Taken from patent US20260102501A1.

pIC50: −log10 of the molar value.
Reported pIC50 values, GR (cytosol from IM-9 cells) (Homo sapiens).

Below, 3 compounds whose answers are already recorded.
Chemical Structure	Result
CC[C@@]1(O)C(=O)OCc2c1cc1n(c2=O)Cc2cc3c(CN4CCN(CCCCCCN(C)c5ccc([C@H]6C[C@@]7(C)[C@@H](CC[C@]7(OC(C)=O)C(C)=O)[C@@H]7CCC8=CC(=O)CCC8=C76)cc5)CC4)c(O)ccc3nc2-1	6.00 to 7.00
CC[C@@]1(O)C(=O)OCc2c1cc1n(c2=O)Cc2cc3c(CN(C)C)c(OC(=O)N4C5CC4CN(CCCCCCN(C)c4ccc([C@H]6C[C@@]7(C)[C@@H](CC[C@]7(OC(C)=O)C(C)=O)[C@@H]7CCC8=CC(=O)CCC8=C76)cc4)C5)ccc3nc2-1	> 8.00
CC[C@@]1(O)C(=O)OCc2c1cc1n(c2=O)Cc2cc3c(CN(C)C)c(OC(=O)N4CCN(CCCCCN(C)c5ccc([C@H]6C[C@@]7(C)[C@@H](CC[C@]7(OC(C)=O)C(C)=O)[C@@H]7CCC8=CC(=O)CCC8=C76)cc5)CC4)ccc3nc2-1	7.00 to 8.00

Now take the following compound into account.
Exam item: Provide value of pIC50 for this record tested with GR (cytosol from IM-9 cells) (Homo sapiens): CC[C@@]1(O)C(=O)OCc2c1cc1n(c2=O)Cc2cc3c(CN(C)C)c(OC(=O)N4CCN(CCCCCCN(C)C5CCN(c6ccc(C(=O)N[C@H]7CC[C@H](Oc8ccc(C#N)c(Cl)c8C)CC7)nn6)CC5)CC4)ccc3nc2-1
Sequence (P04150 whole entry): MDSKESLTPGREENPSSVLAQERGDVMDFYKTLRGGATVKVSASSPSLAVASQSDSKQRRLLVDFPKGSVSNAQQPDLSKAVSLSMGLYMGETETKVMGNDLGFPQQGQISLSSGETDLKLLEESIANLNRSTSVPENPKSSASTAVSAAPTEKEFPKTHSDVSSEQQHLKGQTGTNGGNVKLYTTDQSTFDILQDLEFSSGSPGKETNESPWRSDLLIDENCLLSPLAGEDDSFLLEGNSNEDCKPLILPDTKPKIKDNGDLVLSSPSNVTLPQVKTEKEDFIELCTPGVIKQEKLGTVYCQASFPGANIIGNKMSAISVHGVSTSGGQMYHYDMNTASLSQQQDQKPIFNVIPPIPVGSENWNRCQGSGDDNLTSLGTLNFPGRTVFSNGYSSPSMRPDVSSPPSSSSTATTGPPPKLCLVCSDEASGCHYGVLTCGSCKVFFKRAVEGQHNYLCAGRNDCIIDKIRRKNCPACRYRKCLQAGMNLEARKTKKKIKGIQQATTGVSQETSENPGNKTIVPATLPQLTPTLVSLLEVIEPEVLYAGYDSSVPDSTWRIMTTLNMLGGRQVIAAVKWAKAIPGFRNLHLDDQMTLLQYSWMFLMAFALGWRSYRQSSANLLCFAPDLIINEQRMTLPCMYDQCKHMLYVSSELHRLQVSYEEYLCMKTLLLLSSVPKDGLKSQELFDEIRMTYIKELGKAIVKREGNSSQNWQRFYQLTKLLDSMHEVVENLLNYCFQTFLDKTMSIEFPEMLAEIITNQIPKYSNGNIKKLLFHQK
Marked response: 6.00 to 7.00
